Values compiled from patent US10738061B2.

- tgt: RAD52 (Homo sapiens, UniProt P43351)
- Construct: made in house
- Sequence (P43351 1-418): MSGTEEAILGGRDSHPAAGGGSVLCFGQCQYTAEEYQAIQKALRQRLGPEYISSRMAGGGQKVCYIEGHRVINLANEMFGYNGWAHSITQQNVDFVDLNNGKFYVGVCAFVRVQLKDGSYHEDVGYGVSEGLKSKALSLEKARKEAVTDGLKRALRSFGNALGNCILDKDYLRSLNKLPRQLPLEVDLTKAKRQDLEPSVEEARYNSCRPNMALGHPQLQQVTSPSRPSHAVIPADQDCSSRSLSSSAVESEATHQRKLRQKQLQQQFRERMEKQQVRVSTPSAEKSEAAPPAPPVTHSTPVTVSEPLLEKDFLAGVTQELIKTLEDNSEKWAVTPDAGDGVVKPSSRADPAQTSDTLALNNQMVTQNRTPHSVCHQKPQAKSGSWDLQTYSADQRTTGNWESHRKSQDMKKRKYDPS
- method-description: D-loop formation (DNA pairing) by RAD52
- Format: biochemical
- condition: three independent repeats, read-out: Inhibition of DNA pairing (D-loop formation), IC50

compound | tgt | IC50, µM
CCCCN(CC)CCNC(=O)c1cc2c(-c3ccc(Cl)cc3)nn(C)c2s1 [D-I09] | RAD52 (Homo sapiens, UniProt P43351) | 10.6
Cc1c(C(=O)Nc2ccc(S(=O)(=O)N(C)C3CCN(C)CC3)cc2)oc2c(Cl)cccc12 [D-A21] | RAD52 (Homo sapiens, UniProt P43351) | 16.2
COc1ccc(OC)c(Nc2nc(NCCO)c3ccccc3n2)c1 [D-I05] | RAD52 (Homo sapiens, UniProt P43351) | 8.8
CCCCN(CC)CCCNC(=S)Nc1ccc2nc(N3CCN(C)CC3)cc(C)c2c1 [D-G09] | RAD52 (Homo sapiens, UniProt P43351) | 14.8
CCCN(CCC)CCCNC(=S)Nc1ccc2nc(N3CCN(C)CC3)cc(C)c2c1 [D-G11] | RAD52 (Homo sapiens, UniProt P43351) | 8.9
Cn1nc(-c2ccc(Cl)cc2)c2cc(C(=O)NCCCN3CCCC3)sc21 [D-I19] | RAD52 (Homo sapiens, UniProt P43351) | 4.1
Cc1cc(N2CCN(C)CC2)nc2ccc(NC(=S)NCCCN3CCN(C)CC3)cc12 [D-I01] | RAD52 (Homo sapiens, UniProt P43351) | 15.4
Cc1ccc(-c2nc(C(=O)NCCCN3CCOCC3)cc3c2[nH]c2ccccc23)cc1 [D-C19] | RAD52 (Homo sapiens, UniProt P43351) | 4.3
Cc1ccc(C(=O)c2oc3ccc(Cl)cc3c2NC(=O)CN2CCN(C)CC2)cc1 [D-C17] | RAD52 (Homo sapiens, UniProt P43351) | 17.6
COc1ccc(-c2nc(C(=O)NCCCN3CCOCC3)cc3c2[nH]c2ccccc23)cc1OC [D-A19] | RAD52 (Homo sapiens, UniProt P43351) | 7.2
CCN(CC)CCCN(Cc1cc2cc3c(cc2[nH]c1=O)OCO3)C(=S)NCCCN(C)C [D-A13] | RAD52 (Homo sapiens, UniProt P43351) | 13.6
Cn1nc(-c2ccc(Cl)cc2)c2cc(C(=O)NCCCN3CCCCCC3)sc21 [D-I11] | RAD52 (Homo sapiens, UniProt P43351) | 6.7
CCN1CCN(CCCNC(=S)Nc2ccc3nc(N(C)CCN)cc(C)c3c2)CC1 [D-E05] | RAD52 (Homo sapiens, UniProt P43351) | 11.3
CN1CCN(CCCNC(=O)c2cc3c(-c4ccc(Cl)cc4)nn(C)c3s2)CC1 [D-I07] | RAD52 (Homo sapiens, UniProt P43351) | 2.7
COc1ccccc1Nc1nc(NCCCO)c2ccccc2n1 [D-K17] | RAD52 (Homo sapiens, UniProt P43351) | 4.8
